Test system: Escherichia coli TOP10;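 further: peptides expressed intracellularly from a pBAD plasmid library in pooled LB shake-flask culture, induced with 0.3% L-arabinose, DNA abundance read by NGS, three biological replicates, DESeq2 with apeglm shrinkage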
Assay: shrunken log2 fold change of peptide-encoding DNA abundance (4.5 h post-induction vs induction); higher = less antimicrobial activity (less host growth inhibition)
Settings: time post-induction: 4.5 h; library: site-saturation at positions 5, 18, 19, 20
Label f if shrunken log2 fold change falls below -0.008; label t in every other case.

| SEQ | LABEL |
| --- | --- |
| RRIRCRPPRLPRPRPRPWMWPRP | f |
| RRIRYRPPRLPRPRPRPFTLPRP | f |
| RRIRLRPPRLPRPRPRPGYRPRP | f |
| RRIRPRPPRLPRPRPRPVSVPRP | t |
| RRIRNRPPRLPRPRPRPLTKPRP | t |
| RRIRARPPRLPRPRPRPDVMPRP | t |
| RRIRERPPRLPRPRPRPMFMPRP | f |
| RRIRFRPPRLPRPRPRPPTVPRP | t |
| RRIRIRPPRLPRPRPRPETAPRP | t |
| RRIRNRPPRLPRPRPRPAPRPRP | t |
| RRIRYRPPRLPRPRPRPAKDPRP | f |
| RRIRERPPRLPRPRPRPLWRPRP | t |
| RRIRGRPPRLPRPRPRPHHFPRP | f |
| RRIRGRPPRLPRPRPRPTCVPRP | t |
| RRIRKRPPRLPRPRPRPETTPRP | t |
